experimental details: Relaxivity determination (r1p) of Gd complexes at 298 K, 20 MHz, pH 7
Format: physicochemical
condition info: Table 6; 298K, 20 MHz, pH=7; q=1
metric: R1p (mM⁻¹ s⁻¹)
One number for each entry, in mM⁻¹ s⁻¹.

// below: answered molecules
>  <molecule>
O=C(CCC(C(=O)O)N1CCN(C(CCC(=O)NCC(COC(CO)CO)COC(CO)CO)C(=O)O)CCN(C(CCC(=O)NCC(COC(CO)CO)COC(CO)CO)C(=O)O)CCN(C(CCC(=O)NCC(COC(CO)CO)COC(CO)CO)C(=O)O)CC1)NCC(COC(CO)CO)COC(CO)CO (centres unmarked) [Gd-1c]

>  <unit abbrev>
mM⁻¹ s⁻¹

>  <recorded measurement>
13.84

$$$$
>  <molecule>
O=C(O)CN1CCN(CC(=O)O)CCN(CC(=O)O)CCN(CC(=O)O)CC1 [Gd-DOTA]

>  <unit abbrev>
mM⁻¹ s⁻¹

>  <recorded measurement>
4.7

$$$$
>  <molecule>
O=C(O)CN(CCN(CC(=O)O)CC(=O)O)CCN(CC(=O)O)CC(=O)O [Gd-DTPA]

>  <unit abbrev>
mM⁻¹ s⁻¹

>  <recorded measurement>
4.7

$$$$
>  <molecule>
O=C(O)CN1CCN(C(COCc2ccccc2)C(=O)O)CCN(C(COCc2ccccc2)C(=O)O)CCN(C(COCc2ccccc2)C(=O)O)CC1 (centres unmarked) [Compound B19406]

>  <unit abbrev>
mM⁻¹ s⁻¹

>  <recorded measurement>
7.5

$$$$
>  <molecule>
O=C(O)CN1CCN(CC(=O)O)CCN(C(COCc2ccccc2)C(=O)O)CCN(CC(=O)O)CC1 (centres unmarked) [Compound B19106]

>  <unit abbrev>
mM⁻¹ s⁻¹

>  <recorded measurement>
5.5

$$$$

State recorded R1p for all listed molecules.
1. O=C(O)CN1CCN(C(COCc2ccccc2)C(=O)O)CCN(CC(=O)O)CCN(C(COCc2ccccc2)C(=O)O)CC1 (centres unmarked) [Compound B19236]
2. O=C(CCC(C(=O)O)N1CCN(C(CCC(=O)NCC(COCC(COC(CO)CO)COC(CO)CO)COCC(COC(CO)CO)COC(CO)CO)C(=O)O)CCN(C(CCC(=O)NCC(COCC(COC(CO)CO)COC(CO)CO)COCC(COC(CO)CO)COC(CO)CO)C(=O)O)CCN(C(CCC(=O)NCC(COCC(COC(CO)CO)COC(CO)CO)COCC(COC(CO)CO)COC(CO)CO)C(=O)O)CC1)NCC(COCC(COC(CO)CO)COC(CO)CO)COCC(COC(CO)CO)COC(CO)CO (centres unmarked) [Gd-3c]
3. CC(CO)(CO)COCC(CNC(=O)CCC(C(=O)O)N1CCN(C(CCC(=O)NCC(COCC(C)(CO)CO)COCC(C)(CO)CO)C(=O)O)CCN(C(CCC(=O)NCC(COCC(C)(CO)CO)COCC(C)(CO)CO)C(=O)O)CCN(C(CCC(=O)NCC(COCC(C)(CO)CO)COCC(C)(CO)CO)C(=O)O)CC1)COCC(C)(CO)CO (centres unmarked) [Gd-2c]

1. 6.5
2. 19.6
3. 15
